- SYSTEM: Lon protease (Escherichia coli (strain K12)) (UniProt P0A9M0)
- Sequence (P0A9M0 whole entry, looked up): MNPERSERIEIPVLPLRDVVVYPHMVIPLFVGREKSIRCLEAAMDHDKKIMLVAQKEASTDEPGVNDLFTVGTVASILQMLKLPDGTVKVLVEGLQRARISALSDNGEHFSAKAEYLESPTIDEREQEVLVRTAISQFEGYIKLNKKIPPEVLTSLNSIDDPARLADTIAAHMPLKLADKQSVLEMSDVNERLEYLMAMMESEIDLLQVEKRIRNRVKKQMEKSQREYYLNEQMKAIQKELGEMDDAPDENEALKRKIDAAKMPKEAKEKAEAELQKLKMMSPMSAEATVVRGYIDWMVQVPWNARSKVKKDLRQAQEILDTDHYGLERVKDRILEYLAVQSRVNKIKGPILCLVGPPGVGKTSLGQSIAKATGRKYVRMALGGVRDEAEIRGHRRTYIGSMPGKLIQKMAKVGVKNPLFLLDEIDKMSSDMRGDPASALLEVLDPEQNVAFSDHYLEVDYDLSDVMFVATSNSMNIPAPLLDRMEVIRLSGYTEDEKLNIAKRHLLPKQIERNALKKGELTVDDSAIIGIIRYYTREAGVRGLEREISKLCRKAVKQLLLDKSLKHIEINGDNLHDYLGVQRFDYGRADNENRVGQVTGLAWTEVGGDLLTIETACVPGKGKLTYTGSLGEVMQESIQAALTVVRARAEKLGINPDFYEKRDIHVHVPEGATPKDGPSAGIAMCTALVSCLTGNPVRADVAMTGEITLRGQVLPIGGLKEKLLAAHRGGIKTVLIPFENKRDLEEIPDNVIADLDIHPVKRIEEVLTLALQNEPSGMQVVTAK
- TEST: inhibitors of E. coli Lon protease, primary screen, biochemical, fluorescence polarization (AID 602123);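 further: 0% = enzyme with probe and DMSO and 100% = no enzyme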
- EXPERIMENTAL CONTEXT: purified E. coli Lon protease, at 7.94 µM
Hit rate of the full screen: of about 360,000 compounds, about 1,500 (0.42%) were called active. No stated cut-off is given here; in the data, active means inhibition above about 13% (passing the limit was not always enough); inactive means the rest. Many of the other results were omitted from the sample, so actives are more common in it than they were.
Field 'call' accepts T = active, F = inactive

Completed entries (count: 2):
[[record]]
molecule = "COc1cc(C(=O)Nc2ncccc2C)ccc1OCC(=O)N1CCOCC1"
system = "Lon protease (Escherichia coli (strain K12)) (UniProt P0A9M0)"
classification = "F"

[[record]]
molecule = "Cc1cc(Br)cn2c(Cc3ccsc3)c(-c3ccc(C#N)cc3)nc12"
system = "Lon protease (Escherichia coli (strain K12)) (UniProt P0A9M0)"
classification = "T"


Request: So what was the verdict on CC(C)CCN(C(=O)c1csnn1)C(C(=O)NC1CCCC1)c1ccccc1 (stereo not given) in this test?
Result: F

Request: COc1ccc(/C=C/CN2CCCC(C(=O)c3cc(F)ccc3F)C2)cc1 (stereo not given) ?
Result: F

Request: Then this molecule: "Cc1cc2nc3c(=O)n(Cc4ccccc4)c(=O)[nH]c3nc2cc1N"
Result: T

====

- SYSTEM: Lon protease (Escherichia coli (strain K12))
- TEST: inhibitors of E. coli Lon protease, primary screen, biochemical, fluorescence polarization (AID 602123);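 further: 0% = enzyme with probe and DMSO and 100% = no enzyme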
- EXPERIMENTAL CONTEXT: purified E. coli Lon protease, at 7.94 µM, hits give high values
The campaign covered roughly 360,000 compounds. About 1,500 (0.42%) were called active. Shown is part of a subset that was picked to be rich in actives.
For each of the compounds below, state its inhibition.
Give bare numbers, in %.

The following compounds have reported results that may help.
[[record]]
compound = "O=C(CSCc1ccc([N+](=O)[O-])cc1)Nc1cccc(C(=O)Nc2ccccc2C(=O)O)c1"
numeric_result = -7.21

[[record]]
compound = "Cc1ccc(C(=O)O)c(NC=O)c1OCc1ccccc1"
numeric_result = -0.93

[[record]]
compound = "COc1nc(N(C)C)nc(N2CC(=O)N(CCNS(=O)(=O)c3ccc(C)cc3)C2=N)n1"
numeric_result = -0.47

[[record]]
compound = "O=C(OCCOc1ccccc1Cl)c1cc(S(=O)(=O)N2CCCCC2)ccc1N1CCOCC1"
numeric_result = -5.06

[[record]]
compound = "O=C(Nc1ccn(Cc2ccccc2)n1)c1n[nH]c([N+](=O)[O-])c1Cl"
numeric_result = 1.99

[[record]]
compound = "COCCOC(=O)c1sc(=S)n(CCOC)c1N"
numeric_result = 18.6

[[record]]
compound = "COCCNC(=O)Nc1ccc2nc(-c3ccco3)c(-c3ccco3)nc2c1"
numeric_result = 25.9

[[record]]
compound = "O=C(C1=C(O)C(=O)N(c2ncccn2)C1c1cccs1)c1ccco1 (configuration not stated)"
numeric_result = 44.3


Record inhibition per entry; entries follow.
1. COc1ccc(CNCCCO)cc1OC
2. CCN1C(=O)[C@H]2[C@@H](c3ccc(-c4ccc(OC)cc4)cc3)N[C@@](Cc3ccccc3)(C(=O)OC)[C@H]2C1=O
3. COc1ccc(OC)c(NC(=O)Cc2cccs2)c1
4. COc1ccc(-c2csc(C(O)c3cccc(Cl)c3)n2)cn1 (configuration not stated)

Result:
1: 8.73; 2: -4.73; 3: 32.4; 4: -11.3
